Reference source for all entries: ChEMBL document CHEMBL1152917

Target: Fatty-acid amide hydrolase 1 (Homo sapiens) (UniProt O00519)
Sequence (O00519 whole entry): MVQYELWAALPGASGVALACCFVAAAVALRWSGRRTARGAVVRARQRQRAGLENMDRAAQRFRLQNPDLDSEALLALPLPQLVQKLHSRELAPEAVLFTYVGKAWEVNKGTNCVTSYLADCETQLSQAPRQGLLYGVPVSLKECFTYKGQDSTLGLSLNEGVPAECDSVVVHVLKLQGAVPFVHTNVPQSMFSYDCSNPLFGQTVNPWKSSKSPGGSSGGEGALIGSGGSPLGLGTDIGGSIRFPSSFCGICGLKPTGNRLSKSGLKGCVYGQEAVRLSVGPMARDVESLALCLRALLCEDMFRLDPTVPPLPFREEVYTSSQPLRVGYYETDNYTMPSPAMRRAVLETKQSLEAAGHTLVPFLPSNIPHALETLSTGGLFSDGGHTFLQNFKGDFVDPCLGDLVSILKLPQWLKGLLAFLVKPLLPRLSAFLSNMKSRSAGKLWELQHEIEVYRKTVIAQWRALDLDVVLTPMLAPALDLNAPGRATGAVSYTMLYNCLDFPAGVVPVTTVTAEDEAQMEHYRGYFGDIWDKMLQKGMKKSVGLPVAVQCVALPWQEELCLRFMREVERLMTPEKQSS
Assay: Inhibition of histidine6-tagged FAAH from human brain proteomes at 10 to 100 uM
Calls of active or inactive are those of the source. The calls are words filed in the database; no cut-off is given here.
measured.parameter: inhibition

smiles_notation=Cc1ccc(NC(=O)N2CCN(Cc3sc4ccccc4c3C)CC2)cn1 target_under_test="Fatty-acid amide hydrolase 1 (Homo sapiens) (UniProt O00519)" val=Active
smiles_notation=NC(=O)c1cccc(-c2cccc(OC(=O)NC3CCCCC3)c2)c1 target_under_test="Fatty-acid amide hydrolase 1 (Homo sapiens) (UniProt O00519)" val=Active
smiles_notation=COc1ccc(NC(=O)N2CCN(Cc3sc4ccccc4c3C)CC2)cn1 target_under_test="Fatty-acid amide hydrolase 1 (Homo sapiens) (UniProt O00519)" val=Active
smiles_notation=Cc1c(CC2CCN(C(=O)Nc3cccnc3)CC2)sc2ccc(F)cc12 target_under_test="Fatty-acid amide hydrolase 1 (Homo sapiens) (UniProt O00519)" val=Active
